Reference source: a melting point compilation (Tetko et al.)

Lab note: cut-off is 100 °C. Strictly less in melting point is rule met. Exactly 100 °C or more is rule not met.

Examples from the recorded data:
>>> assigned_class("C=C(Br)C(=O)O")
"rule met"
>>> assigned_class("O=[N+]([O-])c1ccc(Nc2ccc(O)cc2)c([N+](=O)[O-])c1")
"rule not met"
>>> assigned_class("CCOC(=O)N1CCN(C(=O)OCC)CC1")
"rule met"
>>> assigned_class("CCCNC(=O)NCCC")
"rule not met"
>>> assigned_class("O=C1c2ccccc2C(=O)c2cc3ccccc3cc21")
"rule not met"

Attention now turns to another entry.
# input Confirm or reject: melting point of Nc1ccc(F)c(C(=O)O)c1 lies strictly below 100 °C
# output rule not met

----------
Quantity measured: melting point

# example entries with known answers
>>> obs_value("O=C1CCC(c2ccccc2)c2ccccc21 (stereo not drawn)")
"73 to 76 °C"
>>> obs_value("Cc1ccc(C(=O)O)c(C(=O)O)c1")
"146 to 149 °C"
>>> obs_value("N#Cc1cccc(-n2cccc2C=O)c1")
"139 to 141 °C"
>>> obs_value("O=S(=O)(C[C@@H](COCc1ccccc1)OCc1ccccc1)c1ccccc1")
"55 to 56 °C"
>>> obs_value("O=C(CCCc1ccccc1)c1ccccc1")
"55 to 59 °C"

# input Would you mind telling me what melting point value was observed for O=C(Cl)c1sccc1Br ?
# output 65 to 67 °C

# input Would you mind telling me what melting point value was observed for O=C1CCC(c2ccc(NC(=O)Nc3ccccc3)cc2)=NN1 ?
# output 335 to 338 °C

# input Would you mind telling me what melting point value was observed for CC1(C)C(=O)N(Br)C(=O)N1Br ?
# output 187 to 191 °C

# input Would you mind telling me what melting point value was observed for O=C(CCc1ccc(O)cc1)c1c(O)cc(O)cc1O ?
# output 260 to 262 °C

# input Would you mind telling me what melting point value was observed for Cc1cc(C(N)=O)no1 ?
# output 171 to 173 °C

----------
Measured melting point by item

# example entries with known answers
>>> obs_value("CCCCCCCNC(=O)OCC1OC(OC)C(O)C(O)C1O (configuration not stated)")
"103 to 105 °C"
>>> obs_value("CC1(c2ccccc2)CC(C(=NNC(N)=S)c2cc3ccccc3o2)C1 (configuration not stated)")
"205 to 207 °C"
>>> obs_value("COC(=O)C1(C)CCC(C(=O)O)C1(C)C (configuration not stated)")
"74 to 78 °C"
>>> obs_value("c1ccc(C2=C(c3ccccc3)C(c3ccccc3)=C(c3ccccc3)C2)cc1")
"179 to 182 °C"
>>> obs_value("CCC(=O)OC1CCC2(C)C(=CCC3C2CCC2(C)C(C(C)CCCC(C)C)CCC32)C1 (configuration not stated)")
"97 to 100 °C"
>>> obs_value("O=C(O)C=Cc1ccc(N2CCCC2)c([N+](=O)[O-])c1")
"243 to 245 °C"

Shift focus to the following entry.
# input Would you mind telling me what melting point value was observed for Nc1n[nH]c(N)c1Cc1ccccc1 ?
# output 148 to 149 °C

----------
Measured melting point by item
Please respond with the number in °C and leave the unit unwritten.

# input Would you mind telling me what melting point value was observed for Cc1cc(-c2onc(C)c2C(=O)Cl)no1 ?
# output 57

# input Would you mind telling me what melting point value was observed for O=C(Cl)c1ccc(Cl)nc1 ?
# output 50

# input Would you mind telling me what melting point value was observed for CC1=C(c2ccccc2)C(=O)N(C(C)(C)c2cc(Cl)cc(Cl)c2)CO1 ?
# output 150
